- test description: In vivo clearance of […] mg/kg of compound tested in human
- Assay type: ADME, organism-based
- condition parameters: 10 mg/kg
quantity: clearance

[[record]]
smiles_record = "NS(=O)(=O)N1CCN(C2CN(CC[C@]3(c4ccc(Cl)c(Cl)c4)CCC(=O)N(CC4CC4)C3)C2)CC1"
quantity = "clearance"
reported = "< 3 mL/min/kg"


----------
- assayed system: Substance-K receptor (Oryctolagus cuniculus)
- Sequence (P79218 whole entry): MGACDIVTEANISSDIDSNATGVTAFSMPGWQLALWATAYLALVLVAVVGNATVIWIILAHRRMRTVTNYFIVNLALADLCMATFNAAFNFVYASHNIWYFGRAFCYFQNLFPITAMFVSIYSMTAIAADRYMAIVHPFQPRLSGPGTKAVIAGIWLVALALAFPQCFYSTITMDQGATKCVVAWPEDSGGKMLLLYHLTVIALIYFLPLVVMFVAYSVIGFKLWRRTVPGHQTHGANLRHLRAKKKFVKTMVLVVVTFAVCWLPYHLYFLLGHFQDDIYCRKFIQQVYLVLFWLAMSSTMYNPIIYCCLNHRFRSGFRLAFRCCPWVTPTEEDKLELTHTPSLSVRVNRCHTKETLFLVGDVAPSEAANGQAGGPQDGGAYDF
- test description: pA2 for NK2 receptor of rabbit pulmonary artery
- Format: functional
- condition parameters: read-out: pA2 (converted)
quantity: log10(Kb) (log10 of the value in nM)

[[record]]
smiles_record = "NC1CCN(C2CN(CC[C@]3(c4ccc(Cl)c(Cl)c4)CCC(=O)N(CC4CC4)C3)C2)CC1"
assayed_system = "Substance-K receptor (Oryctolagus cuniculus)"
reported = 0.30

[[record]]
smiles_record = "O=C1CC[C@](CCN2CC(N3CCOCC3)C2)(c2ccc(Cl)c(Cl)c2)CN1CC1CC1"
assayed_system = "Substance-K receptor (Oryctolagus cuniculus)"
reported = 0.30

[[record]]
smiles_record = "O=C1CC[C@](CCN2CC(N3CCOCC3)C2)(c2ccc(Cl)c(Cl)c2)CN1C1(C2CC2)CCCC1"
assayed_system = "Substance-K receptor (Oryctolagus cuniculus)"
reported = -0.60

[[record]]
smiles_record = "O=C1CC[C@](CCN2CC(N3CCOCC3)C2)(c2ccc(Cl)c(Cl)c2)CN1CC1CCCCC1"
assayed_system = "Substance-K receptor (Oryctolagus cuniculus)"
reported = 0.00

[[record]]
smiles_record = "O=C1CC[C@](CCN2CC(N3CCC(F)CC3)C2)(c2ccc(Cl)c(Cl)c2)CN1CCC1CC1"
assayed_system = "Substance-K receptor (Oryctolagus cuniculus)"
reported = 0.20

[[record]]
smiles_record = "O=C1CCN(C2CN(CC[C@]3(c4ccc(Cl)c(Cl)c4)CCC(=O)N(CC4CCC(F)(F)CC4)C3)C2)CC1"
assayed_system = "Substance-K receptor (Oryctolagus cuniculus)"
reported = -0.70

[[record]]
smiles_record = "CCOC1CCN(C2CN(CC[C@]3(c4ccc(Cl)c(Cl)c4)CCC(=O)N(CC4CC4)C3)C2)CC1"
assayed_system = "Substance-K receptor (Oryctolagus cuniculus)"
reported = 0.80


----------
- test description: Distribution coefficient (Log D) value at pH 7.4
- Type: physicochemical
- condition parameters: octanol/water
Let's look at some compounds and their measured logD.
quantity: logD

[[record]]
smiles_record = "NC1CCN(C2CN(CC[C@]3(c4ccc(Cl)c(Cl)c4)CCC(=O)N(CC4CCC(F)(F)CC4)C3)C2)CC1"
quantity = "logD"
reported = 0.1

[[record]]
smiles_record = "NS(=O)(=O)N1CCN(C2CN(CC[C@]3(c4ccc(Cl)c(Cl)c4)CCC(=O)N(CC4CC4)C3)C2)CC1"
quantity = "logD"
reported = 1.7

[[record]]
smiles_record = "O=C1CC[C@](CCN2CC(N3CCOCC3)C2)(c2ccc(Cl)c(Cl)c2)CN1CC1CC1"
quantity = "logD"
reported = 2.3

[[record]]
smiles_record = "O=C1CC[C@](CCN2CC(N3CCC(O)CC3)C2)(c2ccc(Cl)c(Cl)c2)CN1CC1CCC(F)(F)CC1"
quantity = "logD"
reported = 2.2

